Would you kindly list Percent Effect for each of these compounds?
molecular target: Protein translocase subunit SecA (Escherichia coli (strain K12)) (UniProt P10408); experiment: Assay to Identify E. coli SecA ATPase Inhibitors; type: functional; parameters: scale not given: direction of the effect not stated beside the values; conditions: 30 µM
Sequence (P10408 whole entry): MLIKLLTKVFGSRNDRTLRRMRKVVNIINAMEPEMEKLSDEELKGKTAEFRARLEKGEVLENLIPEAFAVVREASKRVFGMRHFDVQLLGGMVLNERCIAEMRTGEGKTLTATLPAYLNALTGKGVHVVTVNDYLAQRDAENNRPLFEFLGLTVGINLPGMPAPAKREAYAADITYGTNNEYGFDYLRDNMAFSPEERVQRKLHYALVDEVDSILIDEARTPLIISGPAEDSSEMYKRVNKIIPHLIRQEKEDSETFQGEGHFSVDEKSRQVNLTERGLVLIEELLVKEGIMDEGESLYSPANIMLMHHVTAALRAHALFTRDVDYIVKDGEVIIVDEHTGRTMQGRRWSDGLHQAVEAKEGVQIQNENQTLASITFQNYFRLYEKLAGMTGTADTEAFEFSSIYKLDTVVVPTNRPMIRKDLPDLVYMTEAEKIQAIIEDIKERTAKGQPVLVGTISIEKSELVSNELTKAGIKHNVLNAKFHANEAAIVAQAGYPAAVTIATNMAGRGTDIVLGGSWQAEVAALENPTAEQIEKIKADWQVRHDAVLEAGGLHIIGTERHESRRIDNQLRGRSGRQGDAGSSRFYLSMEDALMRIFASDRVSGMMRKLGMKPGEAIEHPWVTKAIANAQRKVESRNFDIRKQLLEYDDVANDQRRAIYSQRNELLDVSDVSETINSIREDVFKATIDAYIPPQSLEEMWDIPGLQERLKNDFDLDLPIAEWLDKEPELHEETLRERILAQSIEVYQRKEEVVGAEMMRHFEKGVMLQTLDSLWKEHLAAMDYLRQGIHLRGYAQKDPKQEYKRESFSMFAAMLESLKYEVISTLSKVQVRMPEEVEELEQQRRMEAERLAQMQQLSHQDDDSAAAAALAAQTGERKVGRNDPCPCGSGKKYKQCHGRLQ
Results with a measured potency or affinity are listed apart.
Answer with a number only, understood to be in %.

Return reported Percent Effect. Input compound: CCc1nc(C2CCCN2C(=O)C2=COCC2)no1 (stereo unspecified)
-6.76

Return reported Percent Effect. Input compound: CCN1C[C@@H]2[C@@H](OC)CCN(S(=O)(=O)c3ccccc3F)[C@@H]2C1
-2.71

Return reported Percent Effect. Input compound: CN(CCCc1cnn(C)c1)C(=O)C1CCOC1 (stereo unspecified)
-4.14

Return reported Percent Effect. Input compound: Cn1cccc1C(=O)N1CCCC2(CCCN2Cc2cccnc2)C1 (stereo unspecified)
-10.1

Return reported Percent Effect. Input compound: COc1ccccc1OCC(=O)NS(=O)(=O)c1ccc(Br)s1
-3.35

Return reported Percent Effect. Input compound: CCOC(=O)CN1CCC(C(=O)c2cc(F)ccc2F)CC1
-9.27

###

molecular target: Proteasome subunit beta (Trypanosoma cruzi) (UniProt O96673); experiment: Trypanosoma cruzi proteasome chymotrypsin-like activity (TcProtChymo) assay.; assay type: functional; set-up: scale not given: in the data most compounds retested in dose-response had high values; details: 9.37 µM
Sequence (O96673 as listed by the source): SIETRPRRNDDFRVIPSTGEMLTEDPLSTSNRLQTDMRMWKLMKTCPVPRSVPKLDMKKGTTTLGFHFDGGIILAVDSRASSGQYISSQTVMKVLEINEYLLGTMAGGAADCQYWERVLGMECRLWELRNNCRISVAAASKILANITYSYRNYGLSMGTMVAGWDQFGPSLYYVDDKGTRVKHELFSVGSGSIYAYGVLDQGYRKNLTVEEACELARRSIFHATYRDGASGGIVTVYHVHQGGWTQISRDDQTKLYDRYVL
measured_parameter: Percent Effect (%)
Answer with a number only, understood to be in %.

Tell me Percent Effect of C[C@H]1C[C@H]2CN(C(=O)c3ccncn3)CC[C@H]2O1 when tested on Proteasome subunit beta (Trypanosoma cruzi) (UniProt O96673).
12.1

Tell me Percent Effect of CC(C)n1c(=O)nc2n1C(=O)N(c1ccc(F)cc1)C2 when tested on Proteasome subunit beta (Trypanosoma cruzi) (UniProt O96673).
13.9

Tell me Percent Effect of COCC(=O)N1CCC2(CC1)CCN(Cc1ccccn1)C2=O when tested on Proteasome subunit beta (Trypanosoma cruzi) (UniProt O96673).
1.5

Tell me Percent Effect of Cc1cc(C)n(-c2cncc(N3CCN(C(=O)C(C)(C)C)CC3)n2)n1 when tested on Proteasome subunit beta (Trypanosoma cruzi) (UniProt O96673).
13.3

Tell me Percent Effect of COc1cccc(CCC2CCCN(C(=O)C3=NN(C)C(=O)CC3)C2)c1 (centres undefined) when tested on Proteasome subunit beta (Trypanosoma cruzi) (UniProt O96673).
3.79

Tell me Percent Effect of CCC(C)N(C)S(=O)(=O)c1ccc(CCNC(C)=O)s1 (centres undefined) when tested on Proteasome subunit beta (Trypanosoma cruzi) (UniProt O96673).
8.77

Tell me Percent Effect of OC(COCc1ccc(Cl)cc1)CN1CCC(c2ccn[nH]2)CC1 (centres undefined) when tested on Proteasome subunit beta (Trypanosoma cruzi) (UniProt O96673).
3.03

Tell me Percent Effect of Cc1nsc(NC(=O)N2CCC(C(C)(C)O)CC2)n1 when tested on Proteasome subunit beta (Trypanosoma cruzi) (UniProt O96673).
14.2

Tell me Percent Effect of CCn1cc(CN2CCc3nc(N4CCOCC4)nc(O)c3CC2)cn1 when tested on Proteasome subunit beta (Trypanosoma cruzi) (UniProt O96673).
7.64

Tell me Percent Effect of CN(CC(=O)N1CCC(C(O)c2ccccc2)CC1)c1cnccn1 (centres undefined) when tested on Proteasome subunit beta (Trypanosoma cruzi) (UniProt O96673).
8.62

Tell me Percent Effect of COc1nc(C)cc(C)c1CNC(=O)N(C)Cc1cnn(C)c1 when tested on Proteasome subunit beta (Trypanosoma cruzi) (UniProt O96673).
6.28

Tell me Percent Effect of CC(=O)N1CCn2c(C(=O)N(C)C)cnc2C1 when tested on Proteasome subunit beta (Trypanosoma cruzi) (UniProt O96673).
1.32

Tell me Percent Effect of O=C(CCCNC(=O)C1CC1)Nc1cnn(-c2ccccc2Cl)c1 when tested on Proteasome subunit beta (Trypanosoma cruzi) (UniProt O96673).
5.03

Tell me Percent Effect of Cc1nc(-c2ccsc2)ccc1C(=O)O when tested on Proteasome subunit beta (Trypanosoma cruzi) (UniProt O96673).
21.9

Tell me Percent Effect of Cc1cccc2nc(C(=O)N3CCC(Nc4cccnn4)CC3)cn12 when tested on Proteasome subunit beta (Trypanosoma cruzi) (UniProt O96673).
8.16

Tell me Percent Effect of NC(=O)c1cc(NC(=O)NCCc2cc(F)cc(F)c2)ccc1F when tested on Proteasome subunit beta (Trypanosoma cruzi) (UniProt O96673).
5.26

Tell me Percent Effect of N#Cc1ccccc1OCCN1CCCC1Cn1cccn1 (centres undefined) when tested on Proteasome subunit beta (Trypanosoma cruzi) (UniProt O96673).
-5.22

Tell me Percent Effect of CCOc1cc(C(=O)N2CCCC(n3cncn3)C2)ccc1C (centres undefined) when tested on Proteasome subunit beta (Trypanosoma cruzi) (UniProt O96673).
-7.18

Tell me Percent Effect of CCOc1ccc(S(=O)(=O)NC(=O)CCC2CCCO2)cc1 (centres undefined) when tested on Proteasome subunit beta (Trypanosoma cruzi) (UniProt O96673).
17.5

Tell me Percent Effect of O=C(C(CNCc1ccncc1)c1ccccc1)N1CCOCC1 (centres undefined) when tested on Proteasome subunit beta (Trypanosoma cruzi) (UniProt O96673).
18.3

Tell me Percent Effect of Cc1occc1C(=O)N1CCC2(CCC(C(=O)NCC3CC3)O2)CC1 (centres undefined) when tested on Proteasome subunit beta (Trypanosoma cruzi) (UniProt O96673).
13

Tell me Percent Effect of CCOc1ncccc1CNC(=O)Nc1ccc(N(C)C)nc1 when tested on Proteasome subunit beta (Trypanosoma cruzi) (UniProt O96673).
15.3

Tell me Percent Effect of COc1ccc(CNC(=O)c2nn(C)c3c2CS(=O)(=O)CC3)cc1OC when tested on Proteasome subunit beta (Trypanosoma cruzi) (UniProt O96673).
14.8

Tell me Percent Effect of CNS(=O)(=O)CCCN1CCCC1c1cc(C)on1 (centres undefined) when tested on Proteasome subunit beta (Trypanosoma cruzi) (UniProt O96673).
4.5

###

Would you kindly list Percent Effect for each of these compounds?
biological target: Sialic acid-binding Ig-like lectin 9 (Homo sapiens) (UniProt Q9Y336); assay: Hs-Siglec9 ALPHAscreen SOP 20170721; design: scale not given: direction of the effect not stated beside the values; conditions: 10 µM
Sequence (Q9Y336 whole entry): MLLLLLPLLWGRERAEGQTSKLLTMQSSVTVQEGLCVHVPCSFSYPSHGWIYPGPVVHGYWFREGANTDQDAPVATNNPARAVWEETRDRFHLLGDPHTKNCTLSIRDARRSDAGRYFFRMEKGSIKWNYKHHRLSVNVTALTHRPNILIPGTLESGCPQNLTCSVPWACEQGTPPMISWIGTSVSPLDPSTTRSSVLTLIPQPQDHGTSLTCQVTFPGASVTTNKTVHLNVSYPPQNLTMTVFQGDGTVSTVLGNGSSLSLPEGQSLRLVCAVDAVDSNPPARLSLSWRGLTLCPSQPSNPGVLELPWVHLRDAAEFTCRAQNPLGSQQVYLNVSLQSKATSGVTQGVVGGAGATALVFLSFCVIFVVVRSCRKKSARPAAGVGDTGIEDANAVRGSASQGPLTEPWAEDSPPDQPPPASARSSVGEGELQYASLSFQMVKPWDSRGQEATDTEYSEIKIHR
Answer with a number only, understood to be in %.

Tell me Percent Effect of CC(C)CCC(C)NC(=O)c1ccc(OCC(N)=O)cc1 (centres undefined) when tested on Sialic acid-binding Ig-like lectin 9 (Homo sapiens) (UniProt Q9Y336).
5.06

Tell me Percent Effect of CCc1nc(C)c([C@H]2CN(C)C[C@@H]2C(=O)NCCc2cnccn2)[nH]1 when tested on Sialic acid-binding Ig-like lectin 9 (Homo sapiens) (UniProt Q9Y336).
6.61

Tell me Percent Effect of CN(C)C(=O)N1CCN(C(=O)C(c2ccccc2F)N(C)C)CC1 (centres undefined) when tested on Sialic acid-binding Ig-like lectin 9 (Homo sapiens) (UniProt Q9Y336).
14.1

Tell me Percent Effect of COc1cccc2c1OCC(C(=O)N1CCN(S(C)(=O)=O)CC1)C2 (centres undefined) when tested on Sialic acid-binding Ig-like lectin 9 (Homo sapiens) (UniProt Q9Y336).
16.9

Tell me Percent Effect of Cc1cc(C)n(-c2cncc(NCCNC(=O)CC3CCCC3)n2)n1 when tested on Sialic acid-binding Ig-like lectin 9 (Homo sapiens) (UniProt Q9Y336).
27.9

Tell me Percent Effect of c1csc(-c2nc(CN3CCOC(Cn4cccn4)C3)co2)c1 (centres undefined) when tested on Sialic acid-binding Ig-like lectin 9 (Homo sapiens) (UniProt Q9Y336).
19.6

Tell me Percent Effect of Cn1c(C2CC2)nc2c1CCN(CC(=O)Nc1nncs1)C2 when tested on Sialic acid-binding Ig-like lectin 9 (Homo sapiens) (UniProt Q9Y336).
7.43

Tell me Percent Effect of CCc1nc(C)c(C(=O)NCCN2CCN(C(C)=O)CC2)s1 when tested on Sialic acid-binding Ig-like lectin 9 (Homo sapiens) (UniProt Q9Y336).
4.38

Tell me Percent Effect of COc1ccnc(C(=O)N2CCCC(c3noc(C)n3)C2)c1 (centres undefined) when tested on Sialic acid-binding Ig-like lectin 9 (Homo sapiens) (UniProt Q9Y336).
5.56

Tell me Percent Effect of Cc1cnn(CC2CN(CC(=O)NCCc3cccs3)CCO2)c1 (centres undefined) when tested on Sialic acid-binding Ig-like lectin 9 (Homo sapiens) (UniProt Q9Y336).
6.55

Tell me Percent Effect of CC1CN(C)c2ccccc2CN1C(=O)c1ccc[nH]1 (centres undefined) when tested on Sialic acid-binding Ig-like lectin 9 (Homo sapiens) (UniProt Q9Y336).
-2.78

Tell me Percent Effect of Cc1cnn(CC2CCCN2Cc2coc(-c3ccccc3)n2)c1 (centres undefined) when tested on Sialic acid-binding Ig-like lectin 9 (Homo sapiens) (UniProt Q9Y336).
16.7

Tell me Percent Effect of Cc1ccc2c(ccn2CCC(=O)N2CCC(C(N)=O)CC2)c1 when tested on Sialic acid-binding Ig-like lectin 9 (Homo sapiens) (UniProt Q9Y336).
7.91

Tell me Percent Effect of CCCC(Nc1c(C#N)c(=O)n(C)c(=O)n1C)c1ccc(F)cc1F (centres undefined) when tested on Sialic acid-binding Ig-like lectin 9 (Homo sapiens) (UniProt Q9Y336).
11

Tell me Percent Effect of O=C(Nc1cc(F)ccc1OCC1CCCO1)c1ccccn1 (centres undefined) when tested on Sialic acid-binding Ig-like lectin 9 (Homo sapiens) (UniProt Q9Y336).
12.2

Tell me Percent Effect of Cc1ccc(CN2CCc3c(C(=O)N(C)C)nn(C)c3C2)s1 when tested on Sialic acid-binding Ig-like lectin 9 (Homo sapiens) (UniProt Q9Y336).
6.86

Tell me Percent Effect of COCC(C)N(C)C(=O)c1nc(S(C)(=O)=O)n2ccccc12 (centres undefined) when tested on Sialic acid-binding Ig-like lectin 9 (Homo sapiens) (UniProt Q9Y336).
-5.8

Tell me Percent Effect of COc1ccc(-n2nnc(C(=O)NC(C)C)c2C2CC2)cc1 when tested on Sialic acid-binding Ig-like lectin 9 (Homo sapiens) (UniProt Q9Y336).
9.95

Tell me Percent Effect of Cc1ccc(NC(=O)CNc2cccc3c2CCCC3)c(Br)c1 when tested on Sialic acid-binding Ig-like lectin 9 (Homo sapiens) (UniProt Q9Y336).
10.7

Tell me Percent Effect of Cc1cc(NC(=O)CN2CCOC(Cn3cccn3)C2)n(C)n1 (centres undefined) when tested on Sialic acid-binding Ig-like lectin 9 (Homo sapiens) (UniProt Q9Y336).
-1.25

Tell me Percent Effect of CCNC(=O)[C@@H]1C[C@@H](NC(=O)Cc2ccccn2)CN1CCCSC when tested on Sialic acid-binding Ig-like lectin 9 (Homo sapiens) (UniProt Q9Y336).
-0.868

Tell me Percent Effect of CC(C)CN1CCCn2nc(CNC(=O)CCN)cc2C1 when tested on Sialic acid-binding Ig-like lectin 9 (Homo sapiens) (UniProt Q9Y336).
6.76

Tell me Percent Effect of CCn1nc(C)c2nnn(CC(=O)Nc3c(C)cccc3C)c(=O)c21 when tested on Sialic acid-binding Ig-like lectin 9 (Homo sapiens) (UniProt Q9Y336).
-3.51

Tell me Percent Effect of Cc1ccc2c(c1)c(CNC(=O)C1CCN(C(C)C)CC1)nn2C when tested on Sialic acid-binding Ig-like lectin 9 (Homo sapiens) (UniProt Q9Y336).
-0.447

Provenance of the data: ChEMBL document CHEMBL3988442
